Tested on: K562
Experiment: Cytotoxicity against human K562 cells after 72 hrs by MTT assay
Format: functional, cell-based
Conditions: K562, 72 h
assay.metric: IC50

Please review the entries below; each comes with its answer.
compound: CC1=C[C@H]([C@H](O)[C@H](C)[C@@H]2C[C@H]3O[C@]34[C@@H]3CC[C@@H]5C(C)(C)O[C@H]6CC(=O)O[C@]65C[C@]3(O)CC[C@@]24C)OC1=O
assay.metric: IC50
recorded.result: > 100 µg/mL
//
compound: CC1=CC[C@@H]([C@@H](C)[C@@H]2CC[C@@]3(CO)[C@@H]4CC[C@H]5C(C)(C)O[C@@H]6CC(=O)O[C@@]65C[C@@]4(O)CC[C@]23C)OC1=O
assay.metric: IC50
recorded.result: 53.3 µg/mL
//
compound: CC(=O)O[C@H]1CC([C@H](C)[C@H](O)[C@@H]2C[C@H](C)C(=O)O2)=C2CC[C@]3(O)C[C@]45OC(=O)C[C@@]4(O)OC(C)(C)[C@@H]5CC[C@H]3[C@]21C
assay.metric: IC50
recorded.result: > 100 µg/mL
//
compound: CC1=CC[C@@H]([C@@H](C)[C@]2(O)CC[C@@]3(C)[C@@H]4CC[C@H]5C(C)(C)O[C@@H]6CC(=O)O[C@@]65C[C@@]4(O)CC[C@@]32C)OC1=O
assay.metric: IC50
recorded.result: > 100 µg/mL
//
compound: CC(=O)O[C@@H]1C[C@]2(C)[C@@H]([C@H](C)[C@H]3CC=C(C)C(=O)O3)CC[C@@]2(C)CCC[C@H]2C(C)(C)O[C@@H]3CC(=O)O[C@@]32CC1=O
assay.metric: IC50
recorded.result: 50.3 µg/mL
//
compound: COc1cccc2c1C(=O)c1c(O)c3c(c(O)c1C2=O)C[C@@](O)(C(=O)CO)C[C@@H]3O[C@H]1C[C@H](N)[C@H](O)[C@H](C)O1
assay.metric: IC50
recorded.result: 0.011 µg/mL
//
compound: CC1=CC[C@@H]([C@@H](C)[C@@H]2CC=C3[C@@H]4CC[C@H]5C(C)(C)O[C@@H]6CC(=O)O[C@@]65C[C@@]4(OC=O)CC[C@@]32C)OC1=O
assay.metric: IC50
recorded.result: > 100 µg/mL
//
compound: CC1=CC([C@H]2O[C@@]34[C@H](C[C@@H]5O[C@@]53[C@@H]3[C@H](O)C[C@H]5C(C)(C)O[C@@H]6CC(=O)O[C@@]65C[C@@]3(O)C[C@@H]4O)[C@@H]2C)OC1=O (some centres undefined)
assay.metric: IC50
recorded.result: > 100 µg/mL

GET /value?item= CC(=O)O[C@H]1C[C@@H]2[C@H](C)[C@@H](C3CC(C)C(=O)O3)O[C@@]23CC[C@]2(O)C[C@]45OC(=O)C[C@H]4OC(C)(C)[C@@H]5C[C@@H](O)[C@H]2[C@@]13C (some centres undefined) &field=IC50 returns > 100 µg/mL
